# Assay Target: human Nav1.7 (Homo sapiens, UniProt Q15858, W1161R)
# Type: cell-based
# Recorded Conditions: read-out: Nav1.7 IC50
pIC50: −log10 of the molar value. No end group written: not given here.
Parameter: pIC50

Substance: GPQCQDWMQTCDRERDCCEGFVCTLWCRKKLW-OH (cysteine pairing not given here) [NV1D3379]
Assay Target: human Nav1.7 (Homo sapiens, UniProt Q15858, W1161R)
Measured: 7.50
//
Substance: GPCCNCSSKWCRDHSRCCGRGSAPAPAPAPAPGSQCQKWMQTCDAERKCCEGFVCRLWCKKKLW [NV1D3256]
Assay Target: human Nav1.7 (Homo sapiens, UniProt Q15858, W1161R)
Measured: 7.25
//
Substance: GPCCNCSSKWCRDHSRCCGRGSGGGGSAPAPAPAPAPAPAPAPAPAPGGGGSGSQCQKWMQTCDRERKCCEGFVCTLWCRKKLW [NV1D3830]
Assay Target: human Nav1.7 (Homo sapiens, UniProt Q15858, W1161R)
Measured: 7.05
//
Substance: GPSHSNTQTLAKAPEHTGAPAPAPAPAPAPAPAPAPAPQCQKWMQTCDRERKCCEGFVCTLWCRKKLW [NV1D3774]
Assay Target: human Nav1.7 (Homo sapiens, UniProt Q15858, W1161R)
Measured: 7.05
//
Substance: GPCRTIGPSVCAPAPAPAPAPAPAPAPAPAPQCQKWMQTCDRERKCCEGFVCTLWCRKKLW [NV1D3832]
Assay Target: human Nav1.7 (Homo sapiens, UniProt Q15858, W1161R)
Measured: 7.05
//
Substance: GPQCQKWMQTCDRERKCCEGFVCTLWCRKKLWGSAPAPAPAPAPGSCCNCSSKWCRDHSRCCGR [NV1D3800]
Assay Target: human Nav1.7 (Homo sapiens, UniProt Q15858, W1161R)
Measured: 7.22
//
Substance: GPQCQKWMQTCDRERKCCEGFVCTLWCRKKLWGSAPAPAPAPAPAPAPAPAPAPGSCCNCSSKWCRDHSRCCGR [NV1D3798]
Assay Target: human Nav1.7 (Homo sapiens, UniProt Q15858, W1161R)
Measured: 7.02
//
Substance: GPCCNCSSKWCRDHSRCCGRGSAPAPAPAPAPAPAPAPAPAPGSQCQKWMQTCDAERKCCEGFVCRLWCKKKLW [NV1D3260]
Assay Target: human Nav1.7 (Homo sapiens, UniProt Q15858, W1161R)
Measured: 7.24
//
Substance: GPQCQKWMQTCDRERKCCEGFVCTLWCRKKLWGSAPAPAPAPAPGSCCNCSSKWCRDHSRCC [NV1D3799]
Assay Target: human Nav1.7 (Homo sapiens, UniProt Q15858, W1161R)
Measured: 7.30
//
Substance: GPCCNCSSKWCRDHSRCCGSAPAPAPAPAPAPAPAPAPAPGSQCQKWMQTCDRERKCCEGFVCTLWCRKKLW [NV1D3795]
Assay Target: human Nav1.7 (Homo sapiens, UniProt Q15858, W1161R)
Measured: 7.00
//
Substance: GPCCNCSSKWCRDHSRCCGSAPAPAPAPAPGSQCQKWMQTCDRERKCCEGFVCTLWCRKKLW [NV1D3796]
Assay Target: human Nav1.7 (Homo sapiens, UniProt Q15858, W1161R)
Measured: 6.96
